Listed compounds paired with reported Ki
- system under test: hBK1 receptor (Homo sapiens, UniProt P46663)
- Sequence (P46663 whole entry): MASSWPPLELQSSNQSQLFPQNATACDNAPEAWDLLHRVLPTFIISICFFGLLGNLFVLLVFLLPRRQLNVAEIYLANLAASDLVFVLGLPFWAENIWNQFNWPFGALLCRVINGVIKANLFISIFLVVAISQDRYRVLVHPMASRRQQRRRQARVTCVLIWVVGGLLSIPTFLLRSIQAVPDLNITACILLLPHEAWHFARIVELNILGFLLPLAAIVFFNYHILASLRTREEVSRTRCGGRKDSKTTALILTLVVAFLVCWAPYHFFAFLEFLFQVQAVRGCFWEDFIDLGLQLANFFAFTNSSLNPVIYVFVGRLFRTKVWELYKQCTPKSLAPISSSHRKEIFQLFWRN

| compound | Ki, nM |
| --- | --- |
| COc1cc(C)c(S(=O)(=O)N(C)CCOCC(=O)N(C)[C@H]2CC[C@@H](CN3CC[C@@H](N4CCCC4)C3)CC2)c(C)c1 | 0.68 |
| COc1cc(C)c(S(=O)(=O)N(C)CCOCC(=O)N(C)[C@H]2CC[C@H](CCN3CCCC3)CC2)c(C)c1 | 7.5 |
| COc1cc(Cl)cc(Cl)c1S(=O)(=O)N(C)CCOCC(=O)N(C)[C@@H]1CCN(C2CCN(C)CC2)C1 | 8 |
| COc1cc(C)c(S(=O)(=O)N(C)CCOCC(=O)N(C)[C@H]2CC[C@@H](CCN(C)C)CC2)c(C)c1 | 5.9 |
| COc1cc(C)c(S(=O)(=O)N(C)CCOCC(=O)N(C)[C@@H]2CCN(C3CCN(C4CCC4)CC3)C2)c(C)c1 | 0.34 |
| COc1cc(C)c(S(=O)(=O)N(C)CCOCC(=O)N(C)C2CCc3cc(OCCN4CCCC4)ccc32)c(C)c1 (stereo not shown) | 1.2 |
| CCC(CC)NCc1ccc(CN(C)C(=O)COCCN(C)S(=O)(=O)c2c(C)cc(OC)cc2C)cc1 | 8.7 |
